Tested on: Poliovirus 1
Test: Antiviral activity against Poliovirus1 sabin infected in Vero cells assessed as reduction of virus induced cytopathic effect after 3 days by MTS assay
Type: functional, cell-based
Conditions: Enterovirus C, 72 h
pEC50: −log10 of the molar value.
RECORDED METRIC: pEC50

IN: What reported pEC50 corresponds to CC(=O)c1cccc(-n2cnc3c(Cl)ncnc32)c1 on Poliovirus 1?
OUT: < 4.00

* * *

Experiment: Antiviral activity against Enterovirus 71 BrCr infected in human RD cells assessed as reduction of virus induced cytopathic effect after 3 days by MTS assay
Assay type: functional, cell-based, Human enterovirus 71 (strain BRCR)
Conditions: Enterovirus A, 72 h
pEC50: −log10 of the molar value.
RECORDED METRIC: pEC50

IN: Report pEC50 for CC(=O)c1cccc(-n2cnc3c(Cl)ncnc32)c1 please.
OUT: < 4.00

* * *

For each record, write down the corresponding CC50 at 72 h.
Assay: Cytotoxicity against human MRC5 cells after 3 days by MTS assay
Type: cell-based
Your answer is read as µM, so omit the unit and give the number.

IN: Report CC50 at 72 h for OCc1cccc(-n2cnc3c(Cl)ncnc32)c1 please.
OUT: 229

IN: Same again, this time with CC(=O)c1cccc(-n2cnc3c(Cl)ncnc32)c1
OUT: 238

* * *

For each record, write down the corresponding CC50 at 72 h.
Assay: Cytotoxicity against human HeLa cells after 3 days by MTS assay
Assay type: cell-based
Your answer is read as µM, so omit the unit and give the number.

IN: Report CC50 at 72 h for CC(=O)c1cccc(-n2cnc3c(Cl)ncnc32)c1 please.
OUT: 144

IN: Same again, this time with OCc1cccc(-n2cnc3c(Cl)ncnc32)c1
OUT: 175

* * *

For each record, write down the corresponding EC90.
System: Coxsackievirus B3
Experiment: Antiviral activity against Coxsackievirus B3 infected in african green monkey Vero cells assessed as reduction of virus-induced cytopathic effect after 3 days by MTS assay
Type: functional, organism-based
Conditions: Enterovirus B, 72 h

IN: Report EC90 for CC(=O)c1ccc(-n2cnc3c(Cl)ncnc32)cc1 please.
OUT: 51 µM

IN: Same again, this time with Nc1nc(Cl)c2ncn(-c3cccc(CO)c3)c2n1
OUT: 25 µM

IN: Same again, this time with COc1cccc(-n2cnc3c(Cl)ncnc32)c1
OUT: 22 µM

IN: Same again, this time with CC(=O)c1cccc(-n2cnc3c(Cl)nc(C)nc32)c1
OUT: 14 µM

IN: Same again, this time with Cc1nc(Cl)c2[nH]c(=O)n(-c3cccc(C(C)(C)O)c3)c2n1
OUT: 29 µM

IN: Same again, this time with CC(=O)c1cccc(-n2cnc3c(Cl)ncnc32)c1
OUT: 9.1 µM

IN: Same again, this time with CC(C)COc1cccc(-n2cnc3c(Cl)ncnc32)c1
OUT: > 100 µM

IN: Same again, this time with CC(=O)c1cccc(-n2c(C)nc3c(Cl)ncnc32)c1
OUT: 22 µM

* * *

System: Coxsackievirus B3
Assay: Antiviral activity against Coxsackievirus B3 infected in african green monkey Vero cells assessed as reduction of virus-induced cytopathic effect after 3 days by MTS assay
Type: functional, organism-based
Settings: Enterovirus B, 72 h
RECORDED METRIC: EC50 (µM)
Your answer is read as µM, so omit the unit and give the number.

IN: Report EC50 for CC(=O)c1ccc(-n2cnc3c(Cl)ncnc32)cc1 please.
OUT: 35.3

IN: Same again, this time with Cc1nc(Cl)c2ncn(-c3cccc(C(C)(C)O)c3)c2n1
OUT: 8

IN: Same again, this time with CC(=O)c1cc(-n2cnc3c(Cl)ncnc32)ccc1F
OUT: 9.3

IN: Same again, this time with OCc1ccc(-n2cnc3c(Cl)ncnc32)cc1
OUT: 11

IN: Same again, this time with COc1cccc(-n2cnc3c(Cl)ncnc32)c1
OUT: 12

IN: Same again, this time with CC(=O)c1cccc(-n2c(=O)[nH]c3c(Cl)ncnc32)c1
OUT: 9.3
